- Test system: L1210 leukemia ip in BDF1 mice, survival T/C
- ASSAY OVERVIEW: NCI In Vivo Anticancer Drug Screen. Data for tumor model L1210 Leukemia (intraperitoneal) in B6D2F1 (BDF1) mice
- REPORTED CONDITIONS: endpoint: mean survival time; dose: 20.0 mg/kg/injection; schedule: Q01DX001 (ip); vehicle: saline; higher = longer survival
Toxic doses and inconclusive results are not listed.
For each of the compounds below, state its T/C.

Looking up CC[N+]1(C2CCCCC2)CCCCC1 , I found its T/C recorded as 100 % of control

Looking up CCC(=O)C(CCCN(C)C)(c1ccccc1)c1ccccc1 , I found its T/C recorded as 93 % of control

Looking up CC1(C)OC(=O)CC1c1ccccc1 (centres undefined) , I found its T/C recorded as 86 % of control

Looking up CCCCNc1nc2ccccc2[nH]1 , I found its T/C recorded as 101 % of control

Cited source for all entries: PubChem BioAssay AID248
